Experiment: Curing of unsaturated polyester-styrene resin
Conditions: 265° F. (129.4° C.), 1.0 weight per cent
Attribute measured: time to peak exotherm (min)
Record the value in min, omitting the unit from your answer.

Compound: CNC(=O)N=NC(C)(C)C [XIV, tert.-butylazo-N-methylformamide]
Unit abbreviation: min
time to peak exotherm: 17.1
//
Compound: CC(C)(C)N=NC(N)=O [Example XIII, tert.-butylazoformamide]
Unit abbreviation: min
time to peak exotherm: 4.5
//
Compound: COC(=O)CNC(=O)N=NC(C)(C)C
Unit abbreviation: min
time to peak exotherm: 5.1

Here is another compound to look at.
Entry CC(C)(N=NC(N)=O)c1ccccc1 [XVIII, Tert.-cumylazoformamide] has what time to peak exotherm?
6.0
